# Test system: RNA polymerase II Serine 5 phosphorylation (Rpb1 CTD), downstream substrate of CDK7
# method-notes: Imaging-based cellular RNA PolII Ser5 phosphorylation assay in A549 cells
# Type: cell-based, human
# setup-conditions: Homo sapiens, A549, 3 h, challenged with compound for 3 hours, read-out: pRNA polII Ser5 (A549) pIC50 (converted)
Below, each entry is listed alongside its reported IC50.

Would you please look over these solved cases?
Request: Give RNA polymerase II Serine 5 phosphorylation (Rpb1 CTD), downstream substrate of CDK7 IC50 for the following compound: C[C@@H]1c2nc(NC3CCOCC3)ncc2[C@@H](C)CN1C(=O)[C@H]1CCN(C)C[C@@H]1c1ccccc1 [Compound 180a]
Result: ~32.4 nM

Request: Give RNA polymerase II Serine 5 phosphorylation (Rpb1 CTD), downstream substrate of CDK7 IC50 for the following compound: CO[C@H]1CC[C@H](Nc2cc3c(cn2)C[C@H](C)N(C(=O)[C@H]2CCN(C)C[C@@H]2c2cccc(C)c2)C3)CC1 [Compound 177c]
Result: ~97.7 nM

Request: Give RNA polymerase II Serine 5 phosphorylation (Rpb1 CTD), downstream substrate of CDK7 IC50 for the following compound: [2H]C([2H])([2H])c1cccc([C@H]2CN(C)CC[C@@H]2C(=O)N2Cc3nc(NCc4ccn(C)n4)ncc3C[C@H]2C)c1 (relative stereo)
Result: ~26.3 nM

---
Request: Give RNA polymerase II Serine 5 phosphorylation (Rpb1 CTD), downstream substrate of CDK7 IC50 for the following compound: `C[C@@H]1Cc2cnc(NC3CCN(C(=O)CC4CC4)CC3)nc2CN1C(=O)[C@H]1CCN(C)C[C@@H]1c1ccccc1`
Result: ~69.2 nM
